protocolText: yeast display, Sf9 membrane polyspecificity reagent, FACS + sequencing; frameworks hold sequencing errors
recordedEndpoint: polyreactivity (PSR sort gate)

QVQLVESGGGLVQAGGSLRLSCAASRRTFGYYAMGWYRKAPGKEREMVAAIRSTGSTNYADSVKGRFTISRDNAKNSVYLQMNCLKPEDTAVYYCNAKRRFRYDYWGLGTQVTVSS :: low polyreactivity
QVQLVESGGGLVQAGGSLRISCAASGFTFEDNTMGWYRQAPGKERELVAAITWGGVSTYYADSVKGRFTISRDNAKNTVYLQMNSLKPEDTAVYYCARDYDVYTVFLMDYWGQGTQVNVSS :: low polyreactivity

###

protocolText: yeast display, Sf9 membrane polyspecificity reagent, FACS + sequencing; frameworks hold sequencing errors
recordedEndpoint: polyreactivity (PSR sort gate)

QVQLVESGGGLVQAGGSLRLTCAASGSIFRINAMGWYRQEPGKEREFVAVITSRTGNTYYADSVKGRFTISRDNAKNTVYLQMNSLKPEDTAVYYCAADYPPARWEMEYWGQGTQVTVSS :: low polyreactivity
QVQLVESGGGLVQAGGSLRLSCAASGNIFSFNDVGGSRQAPGNEREWVAAITSSDSTNYADSVKGRFTISRDNAKNTVYLQMNSLKPEDTAVYYCATEILTAARDTVVYQFYLGYYYWGQGTQVTVSS :: low polyreactivity

###

protocolText: yeast display, Sf9 membrane polyspecificity reagent, FACS + sequencing; frameworks hold sequencing errors
recordedEndpoint: polyreactivity (PSR sort gate)

The examples below pair each entry with its known result.
QVQLVESGGGLVLAGGSLRLSCAASGRIFWNYAMGWYRQAPGKERELVASINWSGGSTYYADSVKGRFTISRDNAKNTVYLQMNSLKPEDTAVYYCNKDGRVYLDHDYWGQGTQVTVSS :: low polyreactivity
QVQLVESGGGLVQAGGSLRLSCAASGSIFLYNAMGWYRQAPGKERELVATITYIGGRTYYADSVKGRFTISRDNAKNTVYLQMNSLKPEDTAVYYCAAEYYVISSPSFYEYDYWGQGTQVTVSS :: low polyreactivity
QVQLVESGGGLVQAGGSLRLSCAASGFTFYRYAMGWYRQAPGKERELVATISASGGSTYYADSVKGRFTISRDNAKNTVYLQMNSLKPEDTAVYYCAAEHYLWGYVVVREDYWGQGTQVTVSS :: high polyreactivity
QVELVESGGGLVLAGGSLRLSCADSGRTFSYYAMGWYRQAPGKERELVAVITSSGGSTSYADSVKGRFTISRDNAKNTVYLQMNSLKPEDTAVYDCAADPLAVYWAYYLIGVYYWGQGTQVTVSS :: high polyreactivity

Could you tell me which polyreactivity (PSR sort gate) is on file for QVLLVESGGGLVQAGGSLRLSCAASGRTFGTNGMGWYRQAPGKERELVAVITWTGGSTYYADSVKGRFTITRDNEKNTVYLQMNSLKPEDTAVYYCAAKYSHLGYNYWGQGTQVTVSS ?
high polyreactivity

###

protocolText: yeast display, Sf9 membrane polyspecificity reagent, FACS + sequencing; frameworks hold sequencing errors
recordedEndpoint: polyreactivity (PSR sort gate)

Here is how some sequences turned out for polyreactivity (PSR sort gate).
QVQLVESGGRLFQAGGSLRLSCAASGRSYRYYAMGGYTKAPGKERELFAAISSGTRTNYADSVKGRFTISRDNAKNTVYFQMNSLKPEDTAVYYCKADGYRGYYGRNKSKYDFWGQGTQVTVSS :: high polyreactivity
QVQLVESGGGLVQAGCSLRLSCAASGRNFRYYAMGLYRQAPGKERELVAAIDTGDTYYADSVKGRFTISRDNAKYTGYLQMNSLKPEDTAVYYSAAEGSTSLDDYWGQGTQVTVSS :: high polyreactivity
QVQLVESGGGLVQAGGSLRLSCAASGSTFGPYTMGWYRQAAGKERELVAAITGGGDSTYYADSVKGRFTISRDNAKNTVYLQMNSLKPEDTAVYYCAAKKPTTRMGYWGQGTQVTVSS :: low polyreactivity
QVQLQESGGGLVQACGSLRLSCAASGYIFSHQYMGWYRQAPGKERELVASISPGATTNYADCVKGRFTISRDNAKNTVYLQMNSLKPEDTAVYYYAVYQILDRRLSYWGQGTQVTVSC :: high polyreactivity
QVQLVDSGGGLVQAGGSLRLSCAASGSIFNRYVMGWYRQAPGKERELVAAISRRGGNTYYADSVKGRFTISRDNAKNTVYLQMNSLKPEDTAVYYCAAAYRSYKQFYSYGYEYWGQGTQVTVSS :: high polyreactivity

Please look up its polyreactivity (PSR sort gate): QVQLVESGGGLVQAGGSLRLSCAASGSIFHLYLGWYRQAPRKERELVAVIKSSGDSTYYADSVKGRFTISRDNAKNTVYLQMNSMKPEDTAVYYCNARRRGPRYRYCYWGQGTQVTVSS
high polyreactivity

Reference source for all entries: the nanobody polyreactivity screen of Harvey et al. (2022)
